Cited source for all entries: patent US9421209B2

Property: melting point; scope: individual molecules

> print(dat)
                                   molecule         result
1  COc1ccc(-c2nn(C(C)c3oc4ccccc4c(=O)c3-c3cccc(F)c3)c3ncnc(N)c23)cc1OC (stereo not shown)  232 to 235 °C

Would you kindly share the measured melting point for CC(c1oc2ccccc2c(=O)c1-c1ccccc1)n1nc(-c2cccc(O)c2)c2c(N)ncnc21 (stereo not shown) ?
212 to 216 °C

Follow-up entry: CC(c1oc2ccccc2c(=O)c1-c1cccc(F)c1)n1nc(-c2ccc3c(c2)CCO3)c2c(N)ncnc21 (stereo not shown)
238 to 241 °C

Again, but for CCC(c1oc2ccccc2c(=O)c1-c1ccccc1)n1cnc2c(N)ncnc21 (stereo not shown)
223 to 225 °C

Now consider CC(c1oc2ccccc2c(=O)c1-c1cccc(F)c1)n1nc(-c2cnn(Cc3ccccc3)c2)c2c(N)ncnc21 (stereo not shown) .
140 to 142 °C

Entry Nc1ncnc2c1c(-c1cccnc1)nn2Cc1oc2ccccc2c(=O)c1-c1ccccc1 please
253 to 255 °C

Now try Nc1ncnc2c1c(-c1cccc(CO)c1)nn2Cc1oc2ccccc2c(=O)c1-c1ccccc1 .
219 to 223 °C

----------
We begin with a simple list: items and their reported melting point.

Here is how some compounds turned out for melting point.
> print(dat)
                                   compound         result
1  Cc1cc(-c2nn(C(C)c3oc4ccccc4c(=O)c3-c3cccc(F)c3)c3ncnc(N)c23)ccn1 (centres unmarked) [Example 135]  266 to 268 °C
2  CCOc1ccc(-c2nn(C(C)c3oc4ccccc4c(=O)c3-c3cccc(F)c3)c3ncnc(N)c23)cc1 (centres unmarked) [Example 156]  229 to 232 °C
3  CCOc1cccc(-c2nn(C(C)c3oc4ccccc4c(=O)c3-c3cccc(F)c3)c3ncnc(N)c23)c1 (centres unmarked) [Example 150]  162 to 165 °C
4  Nc1ncnc2c1ncn2Cc1oc2ccc(Br)cc2c(=O)c1-c1ccccc1 [Example 1]  207 to 209 °C
5  CCC(c1oc2ccc(F)cc2c(=O)c1-c1ccccc1)n1cnc2c(N)ncnc21 (centres unmarked) [Example 38]  266 to 272 °C

Report melting point for CC(c1oc2ccccc2c(=O)c1-c1cccc(F)c1)n1nc(-c2cc(O)ccc2Cl)c2c(N)ncnc21 (centres unmarked) [Example 96a] please.
192 to 195 °C

Could you do the same for CC(c1oc2ccccc2c(=O)c1-c1cccc(F)c1)n1nc(-c2ccc3c(c2)OCCO3)c2c(N)ncnc21 (centres unmarked) [Example 133] , please?
225 to 226 °C

And then Cc1ccccc1-c1c(C(C)n2cnc3c(N)ncnc32)oc2ccccc2c1=O (centres unmarked) [Example 44] , what is it?
202 to 205 °C

----------
target.or.system: P110 δ/Pi3K δ (Homo sapiens, UniProt O00329)
Sequence (O00329 whole entry, canonical isoform): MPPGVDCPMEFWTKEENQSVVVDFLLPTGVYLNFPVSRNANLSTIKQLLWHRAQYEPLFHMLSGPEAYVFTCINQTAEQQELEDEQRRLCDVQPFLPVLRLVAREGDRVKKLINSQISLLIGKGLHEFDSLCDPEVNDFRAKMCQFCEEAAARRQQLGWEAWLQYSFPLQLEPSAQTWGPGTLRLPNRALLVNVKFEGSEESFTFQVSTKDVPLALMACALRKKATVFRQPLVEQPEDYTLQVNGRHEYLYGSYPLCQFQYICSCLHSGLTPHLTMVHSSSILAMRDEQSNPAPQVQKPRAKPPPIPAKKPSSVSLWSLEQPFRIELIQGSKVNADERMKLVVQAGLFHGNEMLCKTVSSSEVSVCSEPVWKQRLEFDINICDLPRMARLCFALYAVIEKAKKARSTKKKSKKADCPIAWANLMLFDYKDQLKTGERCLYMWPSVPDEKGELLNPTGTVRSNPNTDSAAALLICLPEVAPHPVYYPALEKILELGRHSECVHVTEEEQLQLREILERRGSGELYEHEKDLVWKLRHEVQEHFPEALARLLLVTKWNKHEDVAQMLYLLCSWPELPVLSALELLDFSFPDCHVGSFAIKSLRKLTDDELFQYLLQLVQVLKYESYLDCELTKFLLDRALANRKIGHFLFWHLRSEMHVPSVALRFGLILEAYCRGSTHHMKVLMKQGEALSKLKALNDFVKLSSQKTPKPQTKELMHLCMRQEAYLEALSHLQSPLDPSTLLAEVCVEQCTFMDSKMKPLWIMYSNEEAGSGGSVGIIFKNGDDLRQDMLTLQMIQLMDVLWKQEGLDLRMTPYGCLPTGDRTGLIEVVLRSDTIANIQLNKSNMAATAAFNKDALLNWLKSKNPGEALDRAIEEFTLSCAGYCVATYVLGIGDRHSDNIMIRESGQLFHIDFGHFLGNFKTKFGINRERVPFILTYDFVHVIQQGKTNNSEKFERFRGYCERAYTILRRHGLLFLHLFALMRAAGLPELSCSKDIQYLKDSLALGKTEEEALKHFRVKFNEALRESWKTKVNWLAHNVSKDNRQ
Sequence (P27986 whole entry partner, canonical isoform): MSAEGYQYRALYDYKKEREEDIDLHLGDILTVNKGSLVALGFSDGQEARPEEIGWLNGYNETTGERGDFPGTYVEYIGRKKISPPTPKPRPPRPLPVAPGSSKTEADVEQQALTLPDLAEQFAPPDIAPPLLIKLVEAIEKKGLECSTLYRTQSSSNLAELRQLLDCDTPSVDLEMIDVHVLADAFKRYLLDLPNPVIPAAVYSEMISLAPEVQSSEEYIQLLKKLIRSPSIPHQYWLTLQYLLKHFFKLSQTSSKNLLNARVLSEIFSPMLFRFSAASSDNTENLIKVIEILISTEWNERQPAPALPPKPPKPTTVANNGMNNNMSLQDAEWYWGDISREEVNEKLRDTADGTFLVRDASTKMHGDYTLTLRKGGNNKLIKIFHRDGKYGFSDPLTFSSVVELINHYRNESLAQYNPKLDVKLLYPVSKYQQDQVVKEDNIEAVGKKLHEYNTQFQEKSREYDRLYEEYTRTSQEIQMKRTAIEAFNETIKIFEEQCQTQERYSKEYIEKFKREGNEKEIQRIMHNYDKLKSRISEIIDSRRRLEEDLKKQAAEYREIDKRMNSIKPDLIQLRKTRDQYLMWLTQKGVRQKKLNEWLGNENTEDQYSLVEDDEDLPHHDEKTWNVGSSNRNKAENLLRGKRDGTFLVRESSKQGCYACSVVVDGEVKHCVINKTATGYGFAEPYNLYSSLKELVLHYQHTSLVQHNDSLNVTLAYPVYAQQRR
method.notes: Fluorescent (HTRF) determination of PI3K enzyme activity, δ isoform
Format: biochemical
Set-up: dose or concentration left out as unconfirmed
As shown below, each of these compounds has a reported inhibition value.

Reference set (10 entries):
> print(dat)
                                    compound      result
 1  CC(c1oc2ccccc2c(=O)c1-c1cccc(F)c1)n1nc(-c2ccc3c(c2)OCCO3)c2c(N)ncnc21 (centres unmarked) [Example 133]       < 50%
 2  CCOc1cccc(-c2nn(C(C)c3oc4ccccc4c(=O)c3-c3cccc(F)c3)c3ncnc(N)c23)c1 (centres unmarked) [Example 150]       < 50%
 3  CC(c1oc2ccccc2c(=O)c1-c1cccc(F)c1)n1nc(-c2csc3ccccc23)c2c(N)ncnc21 (centres unmarked) [Example 173]  50 to 100%
 4  COc1ncc(-c2nn(C(C)c3oc4ccccc4c(=O)c3-c3cccc(F)c3)c3ncnc(N)c23)cn1 (centres unmarked) [Example 112]       < 50%
 5  CC(c1oc2ccccc2c(=O)c1-c1cccc(F)c1)n1nc(-c2ccc(O)c(F)c2)c2c(N)ncnc21 (centres unmarked) [Example 85]  50 to 100%
 6  COCc1cccc(-c2nn(C(C)c3oc4ccccc4c(=O)c3-c3cccc(F)c3)c3ncnc(N)c23)c1 (centres unmarked) [Example 161]       < 50%
 7  CC(c1oc2ccccc2c(=O)c1-c1cccc(F)c1)n1nc(-c2csc(CO)c2)c2c(N)ncnc21 (centres unmarked) [Example 114]  50 to 100%
 8  CC(c1oc2ccccc2c(=O)c1-c1cccc(F)c1)n1nc(-c2cc(F)c(O)c(F)c2)c2c(N)ncnc21 (centres unmarked) [Example 126a]       < 50%
 9  Cc1noc(C)c1-c1nn(C(C)c2oc3ccccc3c(=O)c2-c2cccc(F)c2)c2ncnc(N)c12 (centres unmarked) [Example 153]       < 50%
10  Nc1ncnc2c1ncn2Cc1oc2ccc(F)cc2c(=O)c1-c1ccccc1 [Example 118]       < 50%

Look up inhibition with P110 δ/Pi3K δ (Homo sapiens, UniProt O00329) for this compound: CC(c1oc2ccccc2c(=O)c1-c1cccc(F)c1)n1nc(-c2ccc3cc(O)ccc3c2)c2c(N)ncnc21 (centres unmarked) [Example 162]
50 to 100%

Now give it for CC(c1oc2ccccc2c(=O)c1-c1cccc(F)c1)n1nc(-c2cnn(Cc3ccccc3)c2)c2c(N)ncnc21 (centres unmarked) [Example 134] too.
< 50%

CC(c1oc2ccccc2c(=O)c1-c1cccc(F)c1)n1nc(-c2ccc(O)c(O)c2)c2c(N)ncnc21 (centres unmarked) [Example 98] , same question.
50 to 100%

Further, for Cc1n[nH]c2cc(-c3nn(C(C)c4oc5ccc(F)cc5c(=O)c4-c4ccccc4)c4ncnc(N)c34)ccc12 (centres unmarked) [Example 105] ?
50 to 100%

// query: CC(c1oc2ccccc2c(=O)c1-c1cccc(F)c1)n1nc(-c2ccc3cn[nH]c3c2)c2c(N)ncnc21 (centres unmarked) [Example 80]
< 50%

Now the same for COc1c(C)cc(-c2nn(C(C)c3oc4ccccc4c(=O)c3-c3cccc(F)c3)c3ncnc(N)c23)cc1C (centres unmarked) [Example 131]
< 50%

And for CC(c1oc2ccccc2c(=O)c1-c1cccc(F)c1)n1nc(-c2ccco2)c2c(N)ncnc21 (centres unmarked) [Example 155] ?
50 to 100%

Request: Nc1ncnc2c1ncn2Cc1oc2ccccc2c(=O)c1-c1cccc(F)c1 [Example 89]
< 50%

Another compound to check: CC(c1oc2ccccc2c(=O)c1-c1cccc(F)c1)n1nc(-c2ccc(OCc3ccccc3)c(Cl)c2)c2c(N)ncnc21 (centres unmarked) [Example 140]
< 50%

Entry CC(c1oc2ccccc2c(=O)c1-c1cccc(F)c1)n1nc(-c2cccc(N(C)C)c2)c2c(N)ncnc21 (centres unmarked) [Example 142] please
< 50%

Do the same for CC(c1oc2ccccc2c(=O)c1-c1cccc(F)c1)n1nc(-c2ccc(N(C)C)cc2)c2c(N)ncnc21 (centres unmarked) [Example 148] please
50 to 100%

Note, next up: COc1cc(OC)cc(-c2nn(C(C)c3oc4ccccc4c(=O)c3-c3cccc(F)c3)c3ncnc(N)c23)c1 (centres unmarked) [Example 130]
< 50%

Here is the next compound: CC(c1oc2ccccc2c(=O)c1-c1cccc(F)c1)n1nc(-c2ccc3[nH]ccc3c2)c2c(N)ncnc21 (centres unmarked) [Example 100]
50 to 100%

Next compound up: CC(C)Oc1ccc(-c2nn(C(C)c3oc4ccccc4c(=O)c3-c3cccc(F)c3)c3ncnc(N)c23)cc1Cl (centres unmarked) [Example 141]
50 to 100%

Request: CC(c1oc2ccccc2c(=O)c1-c1cccc(F)c1)n1ccc2ncnc(Cl)c21 (centres unmarked) [Example 169]
< 50%

Okay, and CC(c1oc2ccccc2c(=O)c1-c1cccc(F)c1)n1nc(-c2ccc(Oc3ccccc3)cc2)c2c(N)ncnc21 (centres unmarked) [Example 139] ?
< 50%

Then what about the compound CC(C)Oc1ccc(-c2nn(C(C)c3oc4ccccc4c(=O)c3-c3cccc(F)c3)c3ncnc(N)c23)cc1F (centres unmarked) [Example 158] ?
50 to 100%

Another compound: CC(c1oc2ccccc2c(=O)c1-c1cccc(F)c1)n1nc(-c2cccc(OC(F)F)c2)c2c(N)ncnc21 (centres unmarked) [Example 178]
50 to 100%

Same question, CCC(c1oc2ccccc2c(=O)c1-c1cccc(F)c1)n1nc(-c2ccc3c(C)n[nH]c3c2)c2c(N)ncnc21 (centres unmarked) [Example 116] this time
50 to 100%
